# Study system: recombinant mouse sEH (MsEH) (Mus musculus (Mouse))
# Sequence (P34914 whole entry): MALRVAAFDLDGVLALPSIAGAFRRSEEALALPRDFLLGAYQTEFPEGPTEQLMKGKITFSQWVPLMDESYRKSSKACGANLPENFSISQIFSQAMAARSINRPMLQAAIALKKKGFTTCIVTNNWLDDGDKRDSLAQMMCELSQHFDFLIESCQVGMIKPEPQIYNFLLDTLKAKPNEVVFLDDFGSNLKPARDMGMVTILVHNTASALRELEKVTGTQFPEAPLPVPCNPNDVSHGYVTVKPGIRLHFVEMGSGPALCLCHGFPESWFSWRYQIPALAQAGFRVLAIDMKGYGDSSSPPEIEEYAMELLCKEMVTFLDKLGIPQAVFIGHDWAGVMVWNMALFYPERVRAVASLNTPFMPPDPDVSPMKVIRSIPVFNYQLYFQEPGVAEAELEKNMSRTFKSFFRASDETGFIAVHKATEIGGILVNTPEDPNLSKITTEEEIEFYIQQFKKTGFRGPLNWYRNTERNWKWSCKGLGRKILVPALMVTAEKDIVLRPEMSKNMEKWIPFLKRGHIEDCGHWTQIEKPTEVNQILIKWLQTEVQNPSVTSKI
# Procedure summary: Spectrophotometric sEH inhibition assay (NEP2C substrate), recombinant mouse sEH
# Format: biochemical
# Condition parameters: Table 1; MsEH […]; read-out: Mouse sEH IC50
pIC50: −log10 of the molar value.
Quantity kind: pIC50

Recorded results for 3 compounds are shown here.
| Compound | Study system | Measured number |
| --- | --- | --- |
| CCCCCCCCNC(=O)NCCC [Compound 429] | recombinant mouse sEH (MsEH) (Mus musculus (Mouse)) | 6.42 |
| O=C(Nc1ccc(O)cc1)NC1CCCCC1 [Compound 128] | recombinant mouse sEH (MsEH) (Mus musculus (Mouse)) | 6.10 |
| O=C(Nc1ccc(Cl)cc1)NC1CCCCC1 [Compound 20] | recombinant mouse sEH (MsEH) (Mus musculus (Mouse)) | 6.72 |

I. CCCCCCCCCCCCNC(=O)NC1CCCCC1 [Compound 297]
II. O=C(Nc1ccc(Cl)c(Cl)c1)Nc1ccc(Cl)c(Cl)c1 [Compound 299]
III. CCCCCCCCCCCCNC(=O)CC1CCCCC1 [Compound 514]
Order the records so the highest pIC50 appears first and the lowest last. List the labels in the requested order.
I, III, II
(I: 7.30, III: 6.57, II: 6.15)
